Provenance of the data: patent US20210253725A1

Recorded Cellular binding assay [RFU] values for a group of binders are listed next.
Target: T1, CD27 expressed on the cell surface (HT1080_CD27 cells) (human, UniProt P26842 20-260)
T1 construct: whole, on cells; also called K562_CD27
T1 sequence (looked up): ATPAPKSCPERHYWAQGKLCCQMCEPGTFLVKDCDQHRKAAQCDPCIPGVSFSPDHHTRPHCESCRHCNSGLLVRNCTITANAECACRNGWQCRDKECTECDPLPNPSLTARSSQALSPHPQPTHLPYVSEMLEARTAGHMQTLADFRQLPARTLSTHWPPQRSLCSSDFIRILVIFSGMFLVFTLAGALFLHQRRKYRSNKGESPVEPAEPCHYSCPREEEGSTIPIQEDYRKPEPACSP
Assay: cellular binding assay, HT1080_CD27 cells; also: test concentration or dose not given here
OUTCOME MEASURE: Cellular binding assay [RFU] (RFU)

>>> test_value("P018.S.02.A.D04 (antibody, V domains shown, V regions on human Ig constant parts; also called AB27_33) VH: QEQLVESGGGLVQPEGSLTLTCTASALSFYSAWICWVRQAPGKGLKWIACIYAGGSRSTYYATWATGRFTISEASSTTVTLQMTSLTAADTATYFCARSLSADTYWNLWGPGTLVTVSS VL: DVVMTQTPASVEAAVGGTVTIKCQASESISSWLAWYQQKPGQPPKLLIYRASTLESGVPSRFKGSGSGTEFTLTISDLESADAATYYCQNNGGGTSGYTFGGGTEVVVK")
390
>>> test_value("P018.S.01.A.C04 (antibody, V domains shown, V regions on human Ig constant parts; also called AB27_8) VH: QSLEESGGGLVTPGGTLTLTCTASGSDISTYHMGWFRQAPGKGLEYIGFINTGGTTWYASWAKGRFTVSRTSTTVDLLMTSPTTEDTATYFCARYDAGHAFFDLWGPGTLVTVSS VL: AVVMTQTASPVSAAVGGTVTIKCQASQSIGSSYFSWYQQKPGQPPKLLIYSASTLASGVSSRFKGSGSGTEYTLTISDLESADAATYYCQGYDGDTTTAFFAFGGGTEVVVE")
368
>>> test_value("P018.S.07.A.H02 (antibody, V domains shown, V regions on human Ig constant parts; also called AB27_131) VH: QEQLVESGGGLVQPEGSLTLTCKASGFDFSSDAMCWVRQAPGKGLEWIACIYVGSVGSSWYASWAKGRFTISKSSSTTVTLQVTSLTAADTATYFCARGENIAYFTFWGPGTLVTVSS VL: DIMMTQTPASVSAAVGGTVTIKCQASQSINSWLSWYQQKPGQPPKLLIYKASTLASGVPSRFEGSGSGTEFTLTISDLESADAATYYCQGYYYYSSSNFASNAFGGGTEVVVK")
283
>>> test_value("P018.S.07.A.D04 (antibody, V domains shown, V regions on human Ig constant parts; also called AB27_123) VH: QSLEESGGRLVTPGGSLTLTCTVSGIDLSSYAMGWVRQAPGKGLEWIGIISSSGSTYYASWANGRFTISKTSTTVDLKVTSPTTEDTATYFCARDGDSGRGYYFHFWGQGTLVTVSS VL: AFELTQTPASVSAAVGGTVTIKCQASEDIYSLLAWYQQKPGQPPKLLIYDASDLASGVPSRFSGSGSGTEYTLTISDLESADAAIYYCQQGYTTVTIVDNVFGGGTEVVVK")
393
>>> test_value("P018.S.03.A.D03 (antibody, V domains shown, V regions on human Ig constant parts; also called AB27_48) VH: QEQLVESGGGLVQPEGSLTLTCTASGFSFNNNYVMSWVRQAPGKGLEWIGTIYVVSGSTYYASWVNGRFSISKTSSTTVTLQMTSLTDADTATYFCARDQLYNSGYDFDLWGPGTLVIVSS VL: AQVLTQTASPVSAAVGSTVTISCQSSQSVYNNNELSWYQQKPGQPPKLLIYQASKLASGVSSRFSGSESGTQFTLTISGVQSDDAATYYCQGTYYRSGLDNGFGGGTEVVVK")
320
